Kindly state MIC for each of the entries shown.
Method summary: Antimicrobial activity against aheB deficient kanamycin-resistant Aeromonas hydrophila subsp. hydrophila ATCC 7966 harboring plasmid pEX19Gm by agar dilution method
Type: functional
Where a SMILES comes first, the peptide text is derived from it. Bridges are numbered along the chain shown (N, C = ends). [ ]: non-standard residue; d: D form. The star is where a group is joined. NMePhe(4-NMe2) = CN[C@@H](Cc1ccc(N(C)C)cc1)C(=O)O; Pip(4-oxo) = O=C1CCN[C@H](C(=O)O)C1; Picolinoyl(3-OH) = O=C(c1ncccc1O)*; Phg = N[C@H](C(=O)O)c1ccccc1; dAbu = CC[C@@H](N)C(=O)O
Numbers only, in µg/mL.

Record excerpt, results attached:
[
  {
    "Compound": "CN(C)c1ccc2cc3ccc(N(C)C)cc3nc2c1",
    "Parameter": "MIC",
    "Measurement": 256
  },
  {
    "Compound": "CO[C@H]1/C=C/O[C@@]2(C)Oc3c(C)c(O)c4c(O)c(c(/C=N/N5CCN(C)CC5)c(O)c4c3C2=O)NC(=O)/C(C)=C\\C=C\\[C@H](C)[C@H](O)[C@@H](C)[C@@H](O)[C@@H](C)[C@H](OC(C)=O)[C@@H]1C",
    "Parameter": "MIC",
    "Measurement": 1
  },
  {
    "Compound": "CC(=O)O[C@H]1C[C@@]2(C)[C@@H](C[C@@H](O)[C@H]3[C@@]4(C)CC[C@@H](O)[C@@H](C)[C@@H]4CC[C@@]32C)/C1=C(\\CCC=C(C)C)C(=O)O",
    "Parameter": "MIC",
    "Measurement": 64
  },
  {
    "Compound": "CN(C)c1ccc(O)c2c1C[C@H]1C[C@H]3[C@H](N(C)C)C(O)=C(C(N)=O)C(=O)[C@@]3(O)C(O)=C1C2=O",
    "Parameter": "MIC",
    "Measurement": 0.4
  },
  {
    "Compound": "CC[n+]1c(-c2ccccc2)c2cc(N)ccc2c2ccc(N)cc21.[Br-] [HOMIDIUM BROMIDE]",
    "Parameter": "MIC",
    "Measurement": 64
  },
  {
    "Compound": "CC[C@H]1NC(=O)[C@@H](NC(=O)c2ncccc2O)[C@@H](C)OC(=O)[C@H](c2ccccc2)NC(=O)[C@@H]2CC(=O)CCN2C(=O)[C@H](Cc2ccc(N(C)C)cc2)N(C)C(=O)[C@@H]2CCCN2C1=O [PRISTINAMYCIN 1A] ({Picolinoyl(3-OH)}-T[dAbu]P[NMePhe(4-NMe2)][Pip(4-oxo)][Phg]; ester 1-C)",
    "Parameter": "MIC",
    "Measurement": 8
  }
]

Let's switch to this compound now.
Fill blank: measured MIC of the compound `CCC[C@@H]1C[C@@H](C(=O)N[C@@H]([C@H]2O[C@H](SC)[C@H](O)[C@@H](O)[C@H]2O)[C@@H](C)O)N(C)C1` is ____.
64

----------
Kindly state MIC for each of the entries shown.
Method summary: Antimicrobial activity against Aeromonas hydrophila subsp. hydrophila ATCC 7966 harboring plasmid pEX19Gm by agar dilution method
Type: functional
Numbers only, in µg/mL.

[
  {
    "Cpd smiles": "CO[C@H]1/C=C/O[C@@]2(C)Oc3c(C)c(O)c4c(O)c(c(/C=N/N5CCN(C)CC5)c(O)c4c3C2=O)NC(=O)/C(C)=C\\C=C\\[C@H](C)[C@H](O)[C@@H](C)[C@@H](O)[C@@H](C)[C@H](OC(C)=O)[C@@H]1C",
    "Unit text": "µg/mL",
    "MIC": 2
  }
]

Let's switch to this molecule now.
Fill blank: measured MIC of the molecule `CC[C@H]1OC(=O)[C@H](C)[C@@H](O[C@H]2C[C@@](C)(OC)[C@@H](O)[C@H](C)O2)[C@H](C)[C@@H](O[C@@H]2O[C@H](C)C[C@H](N(C)C)[C@H]2O)[C@](C)(O)C[C@@H](C)C(=O)[C@H](C)[C@@H](O)[C@]1(C)O` is ____.
16

----------
Test system: Escherichia coli
Method summary: Antimicrobial activity against acrAB-deficient Escherichia coli TG1 harboring AcrAB efflux pump by agar dilution method
Assay type: functional
Parameter: MIC (µg/mL)
Give bare numbers, in µg/mL.

Record excerpt, results attached:
[
  {
    "Molecule": "CO/N=C(\\C(=O)N[C@@H]1C(=O)N2C(C(=O)O)=C(COC(N)=O)CS[C@H]12)c1ccco1 [CEFUROXIME]",
    "MIC (µg/mL)": 8
  },
  {
    "Molecule": "CN(C)c1ccc(O)c2c1C[C@H]1C[C@H]3[C@H](N(C)C)C(O)=C(C(N)=O)C(=O)[C@@]3(O)C(O)=C1C2=O [MINOCYCLINE]",
    "MIC (µg/mL)": 2
  }
]

Let's switch to this molecule now.
Fill blank: measured MIC of the molecule CC[n+]1c(-c2ccccc2)c2cc(N)ccc2c2ccc(N)cc21.[Br-] [HOMIDIUM BROMIDE] is ____.
512

----------
Method summary: Antimicrobial activity against aheB deficient kanamycin-resistant Aeromonas hydrophila subsp. hydrophila ATCC 7966 harboring plasmid pEX19Gm by agar dilution method in presence of 64 mg/L efflux pump inhibitor phenylalanine-arginine-beta-naphthylamide
Assay type: functional
Where a SMILES comes first, the peptide text is derived from it. Bridges are numbered along the chain shown (N, C = ends). [ ]: non-standard residue; d: D form. The star is where a group is joined. NMePhe(4-NMe2) = CN[C@@H](Cc1ccc(N(C)C)cc1)C(=O)O; Pip(4-oxo) = O=C1CCN[C@H](C(=O)O)C1; Picolinoyl(3-OH) = O=C(c1ncccc1O)*; Phg = N[C@H](C(=O)O)c1ccccc1; dAbu = CC[C@@H](N)C(=O)O
Parameter: MIC (µg/mL)
Answers are plain numbers, in µg/mL.

Give me MIC for each of these compounds, listed below.
1. CC[C@H]1OC(=O)[C@H](C)[C@@H](O[C@H]2C[C@@](C)(OC)[C@@H](O)[C@H](C)O2)[C@H](C)[C@@H](O[C@@H]2O[C@H](C)C[C@H](N(C)C)[C@H]2O)[C@](C)(O)C[C@@H](C)C(=O)[C@H](C)[C@@H](O)[C@]1(C)O
2. CC(=O)O[C@H]1C[C@@]2(C)[C@@H](C[C@@H](O)[C@H]3[C@@]4(C)CC[C@@H](O)[C@@H](C)[C@@H]4CC[C@@]32C)/C1=C(\CCC=C(C)C)C(=O)O
3. CC[C@H]1NC(=O)[C@@H](NC(=O)c2ncccc2O)[C@@H](C)OC(=O)[C@H](c2ccccc2)NC(=O)[C@@H]2CC(=O)CCN2C(=O)[C@H](Cc2ccc(N(C)C)cc2)N(C)C(=O)[C@@H]2CCCN2C1=O [PRISTINAMYCIN 1A] ({Picolinoyl(3-OH)}-T[dAbu]P[NMePhe(4-NMe2)][Pip(4-oxo)][Phg]; ester 1-C)
4. COc1cc(Cc2cnc(N)nc2N)cc(OC)c1OC

[1, 1, 1, 4]

----------
Method summary: Antimicrobial activity against aheB-deficient kanamycin-resistant Aeromonas hydrophila subsp. hydrophila ATCC 7966 harboring AheABC efflux pump by agar dilution method in presence of 64 mg/L efflux pump inhibitor phenylalanine-arginine-beta-naphthylamide
Assay type: functional
Parameter: MIC (mg/L)
One number for each entry, in mg/L.

Record excerpt, results attached:
[
  {
    "Cpd smiles": "COc1cc(Cc2cnc(N)nc2N)cc(OC)c1OC",
    "Measurement": 16
  },
  {
    "Cpd smiles": "CC(=O)O[C@H]1C[C@@]2(C)[C@@H](C[C@@H](O)[C@H]3[C@@]4(C)CC[C@@H](O)[C@@H](C)[C@@H]4CC[C@@]32C)/C1=C(\\CCC=C(C)C)C(=O)O",
    "Measurement": 8
  }
]

Let's switch to this compound now.
Fill blank: measured MIC of the compound `CN(C)c1ccc2cc3ccc(N(C)C)cc3nc2c1` is ____.
256

----------
Method summary: Antimicrobial activity against aheB-deficient kanamycin-resistant Aeromonas hydrophila subsp. hydrophila ATCC 7966 harboring AheABC efflux pump by agar dilution method in presence of 64 mg/L efflux pump inhibitor phenylalanine-arginine-beta-naphthylamide
Assay type: functional
Where a SMILES comes first, the peptide text is derived from it. Bridges are numbered along the chain shown (N, C = ends). [ ]: non-standard residue; d: D form. The star is where a group is joined. NMePhe(4-NMe2) = CN[C@@H](Cc1ccc(N(C)C)cc1)C(=O)O; Pip(4-oxo) = O=C1CCN[C@H](C(=O)O)C1; Picolinoyl(3-OH) = O=C(c1ncccc1O)*; Phg = N[C@H](C(=O)O)c1ccccc1; dAbu = CC[C@@H](N)C(=O)O
Parameter: MIC (µg/mL)
One number for each entry, in µg/mL.

Record excerpt, results attached:
[
  {
    "Compound": "CN(C)c1ccc(O)c2c1C[C@H]1C[C@H]3[C@H](N(C)C)C(O)=C(C(N)=O)C(=O)[C@@]3(O)C(O)=C1C2=O",
    "Unit text": "µg/mL",
    "Measurement": 1
  },
  {
    "Compound": "CCC[C@@H]1C[C@@H](C(=O)N[C@@H]([C@H]2O[C@H](SC)[C@H](O)[C@@H](O)[C@H]2O)[C@@H](C)O)N(C)C1",
    "Unit text": "µg/mL",
    "Measurement": 256
  },
  {
    "Compound": "CC[C@H]1OC(=O)[C@H](C)[C@@H](O[C@H]2C[C@@](C)(OC)[C@@H](O)[C@H](C)O2)[C@H](C)[C@@H](O[C@@H]2O[C@H](C)C[C@H](N(C)C)[C@H]2O)[C@](C)(O)C[C@@H](C)C(=O)[C@H](C)[C@@H](O)[C@]1(C)O",
    "Unit text": "µg/mL",
    "Measurement": 2
  },
  {
    "Compound": "CC[C@H]1NC(=O)[C@@H](NC(=O)c2ncccc2O)[C@@H](C)OC(=O)[C@H](c2ccccc2)NC(=O)[C@@H]2CC(=O)CCN2C(=O)[C@H](Cc2ccc(N(C)C)cc2)N(C)C(=O)[C@@H]2CCCN2C1=O [PRISTINAMYCIN 1A] ({Picolinoyl(3-OH)}-T[dAbu]P[NMePhe(4-NMe2)][Pip(4-oxo)][Phg]; ester 1-C)",
    "Unit text": "µg/mL",
    "Measurement": 4
  }
]

Fill blank: measured MIC of the compound `CO/N=C(\C(=O)N[C@@H]1C(=O)N2C(C(=O)O)=C(COC(N)=O)CS[C@H]12)c1ccco1` is ____.
4
